- Tested system: PPAR Alpha (Homo sapiens, UniProt Q07869)
- Sequence (Q07869 1-468): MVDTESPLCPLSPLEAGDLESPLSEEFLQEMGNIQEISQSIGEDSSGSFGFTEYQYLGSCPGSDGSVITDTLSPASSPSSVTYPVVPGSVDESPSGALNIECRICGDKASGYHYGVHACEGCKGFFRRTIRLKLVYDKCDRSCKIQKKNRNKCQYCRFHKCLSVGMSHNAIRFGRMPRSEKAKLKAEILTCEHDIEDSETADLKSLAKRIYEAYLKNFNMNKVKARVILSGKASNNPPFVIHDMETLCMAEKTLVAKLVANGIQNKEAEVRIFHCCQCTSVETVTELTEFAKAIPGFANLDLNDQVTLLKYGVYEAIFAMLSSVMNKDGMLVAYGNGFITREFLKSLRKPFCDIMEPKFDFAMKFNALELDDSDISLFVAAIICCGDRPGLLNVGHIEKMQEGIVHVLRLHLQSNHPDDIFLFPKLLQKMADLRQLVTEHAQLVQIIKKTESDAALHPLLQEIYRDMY
- Assay notes: PathHunter NHR protein interaction / nuclear translocation agonist test, PPAR Alpha
- Format: cell-based
- Test parameters: PPAR Alpha EC50 nM
Property label: EC50

// for each compound below, give its EC50
1. CSc1ccc(C(=O)[C@H]2CN(C(=O)Oc3ccc(C)nc3)C[C@@H]2Cc2cc(C)c(OC(C)(C)C(=O)O)c(C)c2)cc1 (racemic)
2. CSc1ccc(C(=O)C2CN(C(=O)Oc3ccccc3)CC2Cc2cc(C)c(OC(C)(C)C(=O)O)c(C)c2)cc1 (stereo not shown)
3. CSc1ccc(C(=O)[C@H]2CN(C(=O)Oc3ccccc3)C[C@@H]2CCc2cc(C)c(OC(C)(C)C(=O)OC(C)C)c(C)c2)cc1 (single isomer, unassigned)
4. CSc1ccc(C(=O)[C@H]2CN(C)C[C@@H]2CCc2cc(C)c(OC(C)(C)C(=O)O)c(C)c2)cc1 (racemic)

Out:
["100 to 150 nM", "< 100 nM", "> 250 nM", "> 250 nM"]

###

- Tested system: PPAR Delta (Homo sapiens, UniProt Q03181)
- Sequence (Q03181 whole entry): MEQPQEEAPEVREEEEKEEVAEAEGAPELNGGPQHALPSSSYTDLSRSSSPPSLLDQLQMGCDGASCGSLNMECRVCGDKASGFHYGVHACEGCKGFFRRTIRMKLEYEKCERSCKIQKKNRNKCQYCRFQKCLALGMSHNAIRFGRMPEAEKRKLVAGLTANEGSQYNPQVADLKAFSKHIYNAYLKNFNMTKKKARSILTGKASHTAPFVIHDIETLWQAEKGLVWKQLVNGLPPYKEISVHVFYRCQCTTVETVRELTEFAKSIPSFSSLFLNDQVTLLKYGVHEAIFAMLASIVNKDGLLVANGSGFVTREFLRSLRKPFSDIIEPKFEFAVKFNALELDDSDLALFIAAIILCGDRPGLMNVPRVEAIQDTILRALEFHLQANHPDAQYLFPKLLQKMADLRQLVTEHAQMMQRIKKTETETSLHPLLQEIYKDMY
- Assay notes: PathHunter NHR protein interaction / nuclear translocation agonist test, PPAR Delta
- Format: cell-based
- Test parameters: read-out: PPAR Delta Maximum Activation Response %
Property label: Emax

In: Please look up its Emax: CSc1ccc(C(=O)[C@H]2CN(C(=O)Nc3ccc(Cl)cc3)C[C@@H]2c2cc(C)c(OC(C)(C)C(=O)O)c(C)c2)cc1 (racemic)
Out: 50 to 80%

In: Recorded Emax for CSc1ccc(C(=O)C2CN(C(=O)Oc3ccccc3)CC2Cc2cc(C)c(OC(C)(C)C(=O)O)c(C)c2)cc1 (stereo not shown) , please?
Out: 50 to 80%

In: Which Emax reading was recorded for the compound CSc1ccc(C(=O)C2CN(C(=O)Oc3ccccc3Cl)C[C@@H]2c2cc(C)c(OC(C)(C)C(=O)O)c(C)c2)cc1 (mixture of isomers) ?
Out: 50 to 80%

In: What Emax value was documented for this compound, CSc1ccc(C(=O)C2CN(C(=O)Oc3ccc(Br)cc3)CC2c2cc(C)c(OC(C)(C)C(=O)O)c(C)c2)cc1 (stereo not shown) ?
Out: 80 to 100%

In: Request the reported Emax associated with CSc1ccc(C(=O)[C@@H]2CN(C(C)=O)C[C@H]2CCc2cc(C)c(OC(C)(C)C(=O)O)c(C)c2)cc1 (racemic)
Out: 80 to 100%

In: Emax lookup needed for CSc1ccc(C(=O)C2CN(C(=O)Oc3ccccc3)CC2Cc2cccc(OC(C)(C)C(=O)O)c2)cc1 (single isomer, unassigned) , thanks.
Out: 50 to 80%

Continuing:
In: Which value of Emax has been reported for CSc1ccc(C(=O)C2CN(C(=O)OC(C)C)CC2CCc2cc(C)c(OC(C)(C)C(=O)O)c(C)c2)cc1 (single isomer, unassigned) in the records?
Out: 50 to 80%

###

- Tested system: PPAR Alpha (Homo sapiens)
- Assay notes: PathHunter NHR protein interaction / nuclear translocation agonist test, PPAR Alpha
- Format: cell-based
- Test parameters: read-out: PPAR Alpha Maximum Activation Response %
Assignment: determine reported Emax for the given compounds.

In: What Emax value was documented for this compound, CSc1ccc(C(=O)C2CN(C(C)=O)CC2c2cc(C)c(OC(C)(C)C(=O)O)c(C)c2)cc1 (single isomer, unassigned) [Compound 21] ?
Out: 80 to 100%

In: # get_value(readout='Emax', item= Cc1cc(CC[C@H]2CN(C(=O)Oc3ccccc3)C[C@@H]2C(=O)c2ccc(S(C)(=O)=O)cc2)cc(C)c1OC(C)(C)C(=O)O (racemic) [Compound 68] )
Out: 80 to 100%

In: Recorded Emax for CSc1ccc(C(=O)[C@@H]2CN(C(=O)Oc3ccc(Cl)c(Cl)c3)C[C@H]2c2cc(C)c(OC(C)(C)C(=O)O)c(C)c2)cc1 (single isomer, unassigned) [Compound 43] , please?
Out: 80 to 100%

Continuing:
In: Entry CSc1ccc(C(=O)[C@@H]2CN(C(=O)Oc3ccc(Cl)cc3F)C[C@H]2c2cc(C)c(OC(C)(C)C(=O)O)c(C)c2)cc1 (single isomer, unassigned) [Compound 42] has what Emax?
Out: 80 to 100%

###

I'd appreciate it if you could supply Emax values for the items below.
- Tested system: PPAR Alpha (Homo sapiens, UniProt Q07869)
- Assay notes: PathHunter NHR protein interaction / nuclear translocation agonist test, PPAR Alpha
- Assay type: cell-based
- Test parameters: read-out: PPAR Alpha Maximum Activation Response %

Here's what some known entries look like.
In: What value of Emax has been recorded for this entry: CSc1ccc(C(=O)C2CN(C(=O)Oc3ccc(Cl)cc3)CC2c2cccc(OC(C)(C)C(=O)O)c2)cc1 (single isomer, unassigned)
Out: 80 to 100%

In: Reported Emax for CSc1ccc(C(=O)[C@H]2CN(Cc3ccccc3)C[C@@H]2c2cc(C)c(OC(C)(C)C(=O)O)c(C)c2)cc1 (racemic) : what is it?
Out: < 50%

In: What value of Emax has been recorded for this entry: CSc1ccc(C(=O)C2CN(C(=O)OC(C)C)CC2c2cc(C)c(OC(C)(C)C(=O)O)c(C)c2)cc1 (single isomer, unassigned)
Out: 50 to 80%

In: What value of measured Emax is listed for CSc1ccc(C(=O)C2CN(S(C)(=O)=O)CC2c2cc(C)c(OC(C)(C)C(=O)O)c(C)c2)cc1 (single isomer, unassigned) ?
Out: 80 to 100%

In: Entry under review: CSc1ccc(C(=O)/C=C/c2cc(C)c(OC(C)(C)C(=O)O)c(C)c2)cc1 [GFT-505, Elafibranor, reference compound] . Reported Emax?
Out: 80 to 100%

---
In: Name the reported Emax value associated with the molecule CSc1ccc(C(=O)C2CN(C(=O)OCc3ccccc3)CC2c2cc(C)c(OC(C)(C)C(=O)O)c(C)c2)cc1 (single isomer, unassigned)
Out: 50 to 80%

###

Hi there, I'd appreciate the recorded Emax for every entry that follows.
- Tested system: PPAR Delta (Homo sapiens, UniProt Q03181)
- Assay notes: PathHunter NHR protein interaction / nuclear translocation agonist test, PPAR Delta
- Assay type: cell-based
- Test parameters: read-out: PPAR Delta Maximum Activation Response %

In: What Emax value was documented for this molecule, CSc1ccc(C(=O)C2CN(C(=O)OC(C)C)CC2c2cc(C)c(OC(C)(C)C(=O)O)c(C)c2)cc1 (single isomer, unassigned) [Compound 7] ?
Out: 50 to 80%

In: // Emax lookup, key: COC(=O)N1C[C@@H](C(=O)c2ccc(SC)cc2)[C@H](c2cc(C)c(OC(C)(C)C(=O)O)c(C)c2)C1 (single isomer, unassigned) [Compound 5]
Out: 50 to 80%

In: Record request: Emax value, item COC(=O)N1CC(CCc2cc(C)c(OC(C)(C)C(=O)O)c(C)c2)C(C(=O)c2ccc(SC)cc2)C1 (single isomer, unassigned) [Compound 57]
Out: 50 to 80%

In: Can you look up the measured Emax of CSc1ccc(C(=O)[C@H]2CN(C(=O)Oc3ccccc3)C[C@@H]2CCc2cc(C)c(OC(C)(C)C(=O)OC(C)C)c(C)c2)cc1 (single isomer, unassigned) [Compound 61] for me?
Out: < 50%

In: Give its Emax value. Item: CSc1ccc(C(=O)C2CN(C(=O)Oc3ccc(Cl)cc3)CC2c2cc(C)c(OC(C)(C)C(=O)O)c(C)c2)cc1 (single isomer, unassigned) [Compound 13]
Out: 50 to 80%

Your task in this section: give Emax for each listed record.
1. Cc1cc(CCC2CN(C(=O)Oc3ccccc3)CC2C(=O)c2ccc(Cl)cc2)cc(C)c1OC(C)(C)C(=O)O (single isomer, unassigned) [Compound 65]
2. CSc1ccc(C(=O)[C@H]2CN(C)C[C@@H]2CCc2cc(C)c(OC(C)(C)C(=O)O)c(C)c2)cc1 (racemic) [Compound 55]
3. CSc1ccc(C(=O)[C@@H]2CN(C(=O)Oc3ccccc3)C[C@H]2CCc2cc(C)c(OC(C)(C)C(=O)O)c(C)c2)cc1 (single isomer, unassigned) [Compound 51]
4. CSc1ccc(C(=O)[C@H]2CN(C(=O)Oc3cnn(C)c3)C[C@@H]2Cc2cc(C)c(OC(C)(C)C(=O)O)c(C)c2)cc1 (racemic) [Compound 48]
5. Cc1cc(CC[C@H]2CN(C(=O)Oc3ccccc3)C[C@@H]2C(=O)c2ccc([S+](C)[O-])cc2)cc(C)c1OC(C)(C)C(=O)O (mixture of isomers) [Compound 67]
6. CSc1ccc(C(=O)C2CN(C(=O)Oc3ccc(F)cc3)CC2c2cc(C)c(OC(C)(C)C(=O)O)c(C)c2)cc1 (single isomer, unassigned) [Compound 35]

Out:
["80 to 100%", "50 to 80%", "80 to 100%", "50 to 80%", "80 to 100%", "50 to 80%"]

Hello, the source for this data is patent US10526320B2, in case you need it.
